# Test system: T. cruzi-infected H9C2 cardiomyocytes, high-content imaging
# test-name: intracellular T. cruzi amastigote inhibition, imaging, H9C2 host cardiomyocytes, host toxicity (AID 1159565);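 note: infected cells incubated 72 h after plating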
# condition-set: measured here: H9C2 host cell toxicity
value-type: IC50

[[record]]
compound = "CCOc1ccc(CN(C)Cc2nc(N)nc(Nc3ccc(C)cc3)n2)cc1"
value_type = "IC50"
test_value = "3.2 µM"

[[record]]
compound = "COc1ccc(CN2C(=O)C(O)(CC(=O)c3ccncc3)c3cc(Br)ccc32)cc1OC (stereo unspecified)"
value_type = "IC50"
test_value = "2 µM"

[[record]]
compound = "O=C1CN(C2CCCc3c(OCc4ccncc4)cccc32)C(=O)N1C1CCCCC1 (stereo unspecified)"
value_type = "IC50"
test_value = "> 50 µM"

[[record]]
compound = "c1ccc2sc(Nc3nc4ncccc4[nH]3)nc2c1"
value_type = "IC50"
test_value = "1 µM"

[[record]]
compound = "COCCn1c(-c2ccccc2)cnc1NCc1ccccc1OC"
value_type = "IC50"
test_value = "> 50 µM"

[[record]]
compound = "CC(CCc1ccccc1)NC(=O)CN(Cc1ccccn1)Cc1ccccn1 (stereo unspecified)"
value_type = "IC50"
test_value = "> 79 µM"

[[record]]
compound = "NC(=O)c1ccccc1Nc1nc(NC2CCCCC2)nc2[nH]ccc12"
value_type = "IC50"
test_value = "25 µM"

[[record]]
compound = "CCCn1c(NC(=O)Cc2ccc(Cl)cc2)nc2ccccc21"
value_type = "IC50"
test_value = "> 50 µM"

[[record]]
compound = "COc1ccc(CNc2nsc3ccccc23)cc1OC"
value_type = "IC50"
test_value = "> 50 µM"

[[record]]
compound = "Cc1nc2nc(C)c(Cc3ccc(C(C)C)cc3)c(=O)n2[nH]1"
value_type = "IC50"
test_value = "> 50 µM"

[[record]]
compound = "CN(C)S(=O)(=O)c1cccc(CSc2nnc(-c3ccc4c(c3)OCO4)o2)c1"
value_type = "IC50"
test_value = "> 50 µM"

